These entries and their values trace back to the supplement of paper PMC6555819.

tested on: VDR homodimer (NR concentration 270 nM); experiment: PBM binding z-score (relative to random genomic background probes); higher = stronger binding; sequences stand for … in GC…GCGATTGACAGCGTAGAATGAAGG
result-type: PBM binding z-score
Give bare numbers.

Check out these entries, answers already filled in.
What value of PBM binding z-score has been reported for the following sequence? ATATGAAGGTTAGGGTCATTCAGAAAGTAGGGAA 4.12

What value of PBM binding z-score has been reported for the following sequence? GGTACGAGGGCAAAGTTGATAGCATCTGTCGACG 1.48

What value of PBM binding z-score has been reported for the following sequence? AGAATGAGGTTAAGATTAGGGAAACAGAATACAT 0.435

What value of PBM binding z-score has been reported for the following sequence? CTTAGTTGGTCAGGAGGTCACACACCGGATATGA 2.74

What value of PBM binding z-score has been reported for the following sequence? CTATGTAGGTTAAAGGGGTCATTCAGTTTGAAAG 6.99

Dear colleague, could you send me PBM binding z-score for each of the items below? Thanks.
1. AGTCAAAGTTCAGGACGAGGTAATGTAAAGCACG
2. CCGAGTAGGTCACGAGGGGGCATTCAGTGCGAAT
3. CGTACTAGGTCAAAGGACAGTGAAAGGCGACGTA
4. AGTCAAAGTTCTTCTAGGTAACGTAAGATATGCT
5. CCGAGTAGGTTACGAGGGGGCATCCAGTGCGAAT

1. 2.1
2. 3.61
3. 0.647
4. 0.746
5. 2.87

###

test system: PPARg DBDmut:RXRa IVT, anti-PPARg (DBD mutation: PPARg1 K132A/R137A, NR concentration 270 nM, RXRa partner concentration 90 nM); experiment: PBM binding z-score (relative to random genomic background probes); higher = stronger binding; sequences stand for … in GC…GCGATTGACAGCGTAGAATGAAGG
So I've got a bunch of sequences here, and I need their PBM binding z-score values.
One number for each entry.

What value of PBM binding z-score has been reported for the following sequence? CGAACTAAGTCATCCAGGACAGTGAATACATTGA 0.763

What value of PBM binding z-score has been reported for the following sequence? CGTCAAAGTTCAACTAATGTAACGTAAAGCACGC 0.963

What value of PBM binding z-score has been reported for the following sequence? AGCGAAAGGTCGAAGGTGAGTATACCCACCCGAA 0.39

Dear colleague, could you send me PBM binding z-score for each of the items below? Thanks.
1. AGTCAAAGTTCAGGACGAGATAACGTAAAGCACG
2. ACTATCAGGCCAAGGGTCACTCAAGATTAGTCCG
3. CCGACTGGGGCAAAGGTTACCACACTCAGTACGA
4. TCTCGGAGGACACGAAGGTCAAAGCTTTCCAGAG

0.702
0.909
0.442
-0.973

###

test system: PXR:RXRa (NR concentration 270 nM, RXRa partner concentration 90 nM); assay: PBM binding z-score (relative to random genomic background probes); higher = stronger binding; sequences stand for … in GC…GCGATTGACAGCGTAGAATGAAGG
So I've got a bunch of sequences here, and I need their PBM binding z-score values.
Numbers only.

Check out these entries, answers already filled in.
What value of PBM binding z-score has been reported for the following sequence? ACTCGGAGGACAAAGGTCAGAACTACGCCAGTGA 3.9

What value of PBM binding z-score has been reported for the following sequence? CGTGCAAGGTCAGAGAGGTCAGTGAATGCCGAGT 6.05

What value of PBM binding z-score has been reported for the following sequence? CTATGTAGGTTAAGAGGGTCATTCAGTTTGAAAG 3.96

What value of PBM binding z-score has been reported for the following sequence? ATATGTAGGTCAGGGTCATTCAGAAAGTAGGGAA 4.42

What value of PBM binding z-score has been reported for the following sequence? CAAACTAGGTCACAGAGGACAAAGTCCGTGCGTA 3.52

# context switch: different sequence, same PBM binding z-score
What value of PBM binding z-score has been reported for the following sequence? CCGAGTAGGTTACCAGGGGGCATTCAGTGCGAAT 4.73
